Cited source: patent US12655142B2

- target.desc: GIST430/654 cell line expressing mutated constitutively active cKIT receptor tyrosine kinase (Δ560-576 deletion and V654A point mutation) (Homo sapiens, UniProt P10721, DEL560-576/V654A)
- Construct: endogenous in cells
- Sequence (P10721 with tags, fused parts or gaps DEL560-576/V654A): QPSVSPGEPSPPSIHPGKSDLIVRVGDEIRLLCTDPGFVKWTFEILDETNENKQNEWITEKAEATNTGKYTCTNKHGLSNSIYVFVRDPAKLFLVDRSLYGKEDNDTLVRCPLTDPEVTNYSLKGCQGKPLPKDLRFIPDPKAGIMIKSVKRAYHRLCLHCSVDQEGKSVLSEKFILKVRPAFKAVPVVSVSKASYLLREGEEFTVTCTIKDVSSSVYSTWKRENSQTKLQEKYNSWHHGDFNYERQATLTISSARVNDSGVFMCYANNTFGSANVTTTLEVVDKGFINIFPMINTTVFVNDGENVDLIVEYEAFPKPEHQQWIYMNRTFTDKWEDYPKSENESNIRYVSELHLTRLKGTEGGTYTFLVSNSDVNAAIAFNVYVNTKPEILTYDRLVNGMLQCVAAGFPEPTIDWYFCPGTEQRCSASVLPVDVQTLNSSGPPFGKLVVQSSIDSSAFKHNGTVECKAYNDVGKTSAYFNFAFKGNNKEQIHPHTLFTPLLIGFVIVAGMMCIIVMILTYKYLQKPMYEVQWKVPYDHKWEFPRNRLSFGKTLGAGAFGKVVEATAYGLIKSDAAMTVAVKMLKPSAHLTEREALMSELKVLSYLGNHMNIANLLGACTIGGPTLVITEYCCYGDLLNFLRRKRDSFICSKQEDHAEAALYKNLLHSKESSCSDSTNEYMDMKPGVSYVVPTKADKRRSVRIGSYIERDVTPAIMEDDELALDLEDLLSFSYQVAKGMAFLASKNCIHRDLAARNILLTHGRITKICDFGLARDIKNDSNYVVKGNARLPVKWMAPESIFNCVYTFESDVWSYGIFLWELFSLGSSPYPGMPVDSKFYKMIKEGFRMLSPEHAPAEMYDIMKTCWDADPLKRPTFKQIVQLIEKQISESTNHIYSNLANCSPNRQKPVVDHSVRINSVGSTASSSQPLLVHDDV
- method.notes: Cellular cKIT autophosphorylation (phospho-Y307-cKIT, Luminex bead assay) in GIST430/654 cells
- experimental.parameters: compounds 45 min, read-out: GIST 430/654 IC50
- Procedure: Assay Principle for Cellular Testing of cKIT Mutant Inhibitors […] Counts from samples treated with compounds were calculated as percent of control from solvent treated (0.3% DMSO) samples. Dose-response curves were fitted and IC50 values were determined using Genedata Screener software.
pIC50: −log10 of the molar value.
Where pIC50 equals or exceeds 6, the correct label is rule met; where it does not, the label is rule not met.

molecule: COc1ccn2c(-c3cc(NCc4ccc(-c5cnc(C)o5)cc4)ncn3)cnc2c1 [A48]
cat: rule met

molecule: Cn1cc(-c2ccc(CNc3cc(-c4cnc5cc(OCCN6CCN7CCC6C7)ccn45)ncn3)cc2)cn1 (centres unmarked) [A212]
cat: rule met

molecule: Cn1cc(-c2ccc(CNc3cc(-c4cnc5cc(N6CC7(COC7)C6)ccn45)ncn3)cc2)cn1 [A246]
cat: rule met

molecule: COc1ccn2c(-c3cc(NCc4ccc(C(=O)N(C)C)cc4)ncn3)cnc2c1 [A13]
cat: rule not met
